- Test description: Clinical PK interaction, PART 2: zastaprazan and meloxicam in healthy subjects
- Assay type: in vivo, human (healthy subjects)
- Assay context: human, in vivo, 40 mg
Metric name: AUC(0-t) (ng·h/mL)
One number for each entry, in ng·h/mL.

Record `Cc1cccc(C)c1CNc1cc(C(=O)N2CCC2)cn2c(C)c(C)nc12.O=C(O)CC(O)(CC(=O)O)C(=O)O` . Reported AUC(0-t): 1120

* * *

- Test description: Clinical PK interaction, PART 2: zastaprazan and meloxicam in healthy subjects
- Assay type: in vivo, human (healthy subjects)
- Assay context: human, in vivo, 40 mg
Metric name: Cmax (ng/mL)
Answers are plain numbers, in ng/mL.

Record Cc1cccc(C)c1CNc1cc(C(=O)N2CCC2)cn2c(C)c(C)nc12.O=C(O)CC(O)(CC(=O)O)C(=O)O [Zastaprazan] . Reported Cmax: 237

* * *

- Test description: Clinical PK interaction, PART 1: zastaprazan and aceclofenac in healthy subjects
- Assay type: in vivo, human (healthy subjects)
- Assay context: human, plasma, oral; Z + A (zastaprazan 40 mg and aceclofenac 100 mg), n = 22, mean ± SD; read-out: aceclofenac AUCT, SS
Metric name: AUC(0-t) (ng·h/mL)
Give bare numbers, in ng·h/mL.

Record O=C(O)COC(=O)Cc1ccccc1Nc1c(Cl)cccc1Cl [Aceclofenac, aceclofenac, reference compound] . Reported AUC(0-t): 20800

* * *

- Test description: Clinical PK interaction, PART 1: zastaprazan and aceclofenac in healthy subjects
- Assay type: in vivo, human (healthy subjects)
- Assay context: human, oral; A (aceclofenac 100 mg alone), n = 22, plasma, mean ± SD; read-out: aceclofenac Cmax, SS
Metric name: Cmax

Record O=C(O)COC(=O)Cc1ccccc1Nc1c(Cl)cccc1Cl [Aceclofenac, aceclofenac, reference compound] . Reported Cmax: 10100 ng/mL
